ASSAYED_SYSTEM: Renilla luciferase (Renilla reniformis, UniProt P27652)
Sequence (P27652 whole entry): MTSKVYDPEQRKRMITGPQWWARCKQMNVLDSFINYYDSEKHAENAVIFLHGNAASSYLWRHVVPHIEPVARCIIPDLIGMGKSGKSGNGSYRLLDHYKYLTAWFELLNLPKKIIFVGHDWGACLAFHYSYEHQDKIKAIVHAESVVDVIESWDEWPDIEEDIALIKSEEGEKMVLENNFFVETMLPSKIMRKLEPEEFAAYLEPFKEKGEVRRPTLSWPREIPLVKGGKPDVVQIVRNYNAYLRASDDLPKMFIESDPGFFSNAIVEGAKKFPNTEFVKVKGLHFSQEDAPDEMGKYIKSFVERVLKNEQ
ASSAY_COMMENT: Non-detergent compound screen, Renilla luciferase (Example 6)
Format: biochemical
CONDITION_INFO: inhibitor 1000 μM

{"COMPOUND": "COc1cc(OC)c(CNC(=O)/C=C/c2ccc3[nH]cc(CCN(C)C)c3c2)c(OC)c1", "Selectivity Value": 2.9}
{"COMPOUND": "C=C(C(=O)NCc1ccc(OC)cc1)c1ccc2ncccc2c1", "Selectivity Value": 1.1}
{"COMPOUND": "C=C(C(=O)NCc1ccc(OC)cc1)c1ccc2[nH]ccc2c1", "Selectivity Value": 1.1}
{"COMPOUND": "CN(C)CCc1c[nH]c2ccc(/C=C/C(=O)NCc3ccc([N+](=O)[O-])cc3)cc12", "Selectivity Value": 33}

====

Items are presented alongside their recorded remaining activity at 100 µM.
ASSAYED_SYSTEM: UniProt:P08659
ASSAY_COMMENT: Non-detergent compound screen, firefly luciferase (Example 6)
Format: biochemical
CONDITION_INFO: inhibitor 100 μM; 0.5% Tergitol NP-9, 0.03% BDDABr; read-out: Retained Firefly Luciferase Value (%)

{"COMPOUND": "COc1ccc(CNC(=O)/C(C#N)=C/c2ccc3[nH]cc(CCN(C)C)c3c2)cc1", "remaining activity at 100 µM": "100%"}
{"COMPOUND": "COc1ccc(CNC(=O)/C=C/c2ccc3[nH]cc(CCN(C)C)c3c2)cc1", "remaining activity at 100 µM": "102%"}
{"COMPOUND": "COc1ccc(CNC(=O)/C=C/c2ccc3[nH]cc(CCCN(C)C)c3c2)cc1", "remaining activity at 100 µM": "101%"}
{"COMPOUND": "COc1ccc(CNC(=O)/C=C/c2ccc3c(ccc[n+]3C)c2)cc1.[I-]", "remaining activity at 100 µM": "100%"}
{"COMPOUND": "CN(C)CCc1c[nH]c2ccc(/C=C/C(=O)NCc3ccc([N+](=O)[O-])cc3)cc12", "remaining activity at 100 µM": "102%"}
{"COMPOUND": "COc1ccc(CNC(=O)/C=C/c2ccc3[nH]ccc3c2)cc1", "remaining activity at 100 µM": "100%"}
{"COMPOUND": "CCCC[N+](C)(C)CCc1c[nH]c2ccc(/C=C/C(=O)NCc3ccc(OC)cc3)cc12.[I-]", "remaining activity at 100 µM": "98%"}

====

ASSAYED_SYSTEM: firefly luciferase (Photinus pyralis)
Sequence (P08659 whole entry): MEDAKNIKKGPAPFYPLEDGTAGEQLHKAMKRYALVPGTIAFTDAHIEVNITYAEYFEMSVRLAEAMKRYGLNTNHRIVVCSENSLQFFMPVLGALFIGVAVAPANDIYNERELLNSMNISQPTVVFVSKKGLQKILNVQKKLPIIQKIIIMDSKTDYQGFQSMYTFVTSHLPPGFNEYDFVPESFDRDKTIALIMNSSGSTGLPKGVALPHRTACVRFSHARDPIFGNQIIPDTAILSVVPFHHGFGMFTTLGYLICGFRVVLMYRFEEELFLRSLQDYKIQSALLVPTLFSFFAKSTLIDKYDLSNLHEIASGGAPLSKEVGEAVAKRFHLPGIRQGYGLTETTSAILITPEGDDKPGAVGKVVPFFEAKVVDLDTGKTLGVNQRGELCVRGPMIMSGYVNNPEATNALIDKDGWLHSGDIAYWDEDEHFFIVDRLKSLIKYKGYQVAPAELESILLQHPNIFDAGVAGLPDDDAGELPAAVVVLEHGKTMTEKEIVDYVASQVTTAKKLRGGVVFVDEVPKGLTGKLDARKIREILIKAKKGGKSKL
ASSAY_COMMENT: Detergent titration with Tergitol NP-9, digitonin or no lysing agent, firefly luciferase (Example 4)
Type: biochemical
CONDITION_INFO: 0.0050% detergent; Water; read-out: Relative Firefly Luc Intensity

{"MOLECULE": "CCCCCCCCCCCCCCCC[N+](C)(C)C.[Cl-] [Cetyltrimethylammonium chloride]", "remaining activity at 0.005 %": "70%"}
{"MOLECULE": "CCCCC[N+](CCCCC)(CCCCC)CCCCC.[Br-] [Tetrapentylammonium bromide]", "remaining activity at 0.005 %": "101%"}
{"MOLECULE": "CCCCCCCCCCCC[N+](C)(C)C.[Br-] [Dodecyltrimethylammonium bromide]", "remaining activity at 0.005 %": "128%"}
{"MOLECULE": "Cc1cc(C)c(C[N+](C)(C)C)cc1C.[Br-]", "remaining activity at 0.005 %": "54%"}
{"MOLECULE": "CCCCCCCCCCCC[N+](C)(C)Cc1ccccc1.[Br-] [Benzyldimethyldodecylammonium bromide]", "remaining activity at 0.005 %": "155%"}
{"MOLECULE": "CCCCCCCCCCCCCC[N+](C)(C)Cc1ccccc1.[Br-] [Benzyldimethyltetradecylammonium bromide]", "remaining activity at 0.005 %": "106%"}
